test: Accelerated storage test of aldehyde mixture with additive, 40 ppm Cu (Example 1); assay type: physicochemical; settings: after 55° C. 14 days without cap, before test 6.7, blank 18.84135
Recorded C16:Acid, one value per entry.

compound: Cc1cc(-n2nc3ccc(Cl)cc3n2)c(O)c(C(C)(C)C)c1
measured: 17.1

compound: [Na+].[O-][n+]1ccccc1[S-] [Sodium pyrithione]
measured: 8.924

Now take the following compound into account.
Per the record, COc1ccc(O)c(C(C)(C)C)c1 has C16:Acid of 15.55

---

Below: a set of entries, each annotated with reported 16:Ald.
test: Accelerated storage test of aldehyde mixture with additive, 10 ppm Cu (Example 2); conditions: after 55° C. 14 days without cap, before test 8.41, blank 6.60
Simply state the number, no unit and no words.

Reference set (2 entries):
compound: O=S1(=O)CCCC1
measured: 6.60
--
compound: OCC(O)CO
measured: 6.75

Looking up C1COCCN1 , I see its 16:Ald listed as 6.84

So, CN(C)CCO ? Its 16:Ald was 6.65

Documented 16:Ald of Cc1c(C)c2c(c(C)c1O)CCC(C)(CCCC(C)CCCC(C)CCCC(C)C)O2 (racemic) : 6.65

Recorded result, COc1ccc(O)c(C(C)(C)C)c1 , 16:Ald: 7.33

Notebook: [Na+].[O-][n+]1ccccc1[S-] [Sodium pyrithione] , 16:Ald read as 8.73

The compound listed as Cc1ccc(O)c(-n2nc3ccccc3n2)c1 shows 16:Ald equal to 6.57

Briefly, 16:Ald measured for CC(C)(C)c1cc(O)ccc1O : 7.75

---

assay: Storage test of aldehyde mixture containing 4-hydroxy-TEMPO with additive (Example 4); type: physicochemical; settings: after 55° C. 14 days without cap; before test 7.27, without additive 5.83
Measured 15-1:Ald accompanies every entry in the list below.
Provide a numeric answer; units are not to be included.

molecule: SC1=NCCS1
observed-property: 15-1:Ald
measured: 6.26
//
molecule: CC1(C)CC(=O)CC(C)(C)N1
observed-property: 15-1:Ald
measured: 6.27
//
molecule: Sc1nc2ccccc2[nH]1
observed-property: 15-1:Ald
measured: 6.16
//
molecule: Cn1ccnc1S
observed-property: 15-1:Ald
measured: 6.65

Notebook: Cc1nnc(S)s1 , 15-1:Ald read as 6.71

# 15-1:Ald (molecule: CC1(C)CC(O)CC(C)(C)N1[O] ) is 6.54

Short answer for Nc1nnc(S)s1 : 15-1:Ald was 6.82

Recorded result, [Na+].[O-][n+]1ccccc1[S-] [Sodium pyrithione] , 15-1:Ald: 6.71

---

assay: Accelerated storage test of aldehyde mixture with additive, 10 ppm Cu (Example 2); conditions: after 55° C. 14 days without cap, before test 75.31, blank 54.31
Rule: criterion met for Z11-16Ald not less than 60, criterion not met for anything less.

molecule: Cc1cc(-n2nc3ccc(Cl)cc3n2)c(O)c(C(C)(C)C)c1 [Sumisorb]
label-value: criterion not met

Answer whether Z11-16Ald of Cc1ccc(O)c(-n2nc3ccccc3n2)c1 [Tinuvin P] is greater than or equal to 60.
criterion not met

State whether the measured Z11-16Ald reaches 60, counting equality as reaching it, for C1COCCN1 [Morpholine]
criterion not met

Reported Z11-16Ald at or above 60? CCCOC(=O)c1cc(O)c(O)c(O)c1 [Propyl Gallate]
criterion met

# check: Z11-16Ald of C[S+](C)[O-] [DMSO] is greater than or equal to 60
criterion not met

Can [Na+].[OH-] [Sodium Hydroxide] be said to have Z11-16Ald at or above 60?
criterion not met
